test system: PXR homodimer (NR concentration 270 nM); assay: PBM binding z-score (relative to random genomic background probes); higher = stronger binding; sequences stand for … in GC…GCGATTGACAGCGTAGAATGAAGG
A collection of sequences and their measured PBM binding z-score

**Query** Return reported PBM binding z-score; argument: GCAACTGGGGCAAAGCAGGTTACCATAAGGTTGG
**Result** -0.607

**Query** Return reported PBM binding z-score; argument: GCGACTGGGGCATCAGCAGGGTACCATAACTTAA
**Result** -0.457

**Query** Return reported PBM binding z-score; argument: TGAATGAGGTTAAAGATCAGGAAACGTGGCGTCG
**Result** -0.325

**Query** Return reported PBM binding z-score; argument: CGTACTAGGTCATTGACAGGACAGTGAATAGTAA
**Result** 0.269

**Query** Return reported PBM binding z-score; argument: TATACAGGGTCAAAGGCGAGAGTACGAATGTCGA
**Result** 0.6

**Query** Return reported PBM binding z-score; argument: CCTCCAAGGTCAAAGGTCAGTGAAGAGATGACGG
**Result** 2.06

**Query** Return reported PBM binding z-score; argument: GTACCAAGGTGAATATGTCGTTGATGAGTAGGCG
**Result** 0.282

**Query** Return reported PBM binding z-score; argument: GGAACCAGGGCATTCGAGTTGATAGCATGGCGAT
**Result** 0.865

**Query** Return reported PBM binding z-score; argument: TCAGACAGGTGAAGGTATCTCAGGTACGCAGTCG
**Result** 0.13

**Query** Return reported PBM binding z-score; argument: GATACAGGGTCAGCTATAGGCCAGAGTATGGAAA
**Result** -0.0446

**Query** Return reported PBM binding z-score; argument: CGTCAAAGTTCAACTACGGTAACGTAAAGCACGC
**Result** 3.79

**Query** Return reported PBM binding z-score; argument: AATACAGGGTCAATAGGCCAGAGTAGGTACGAAT
**Result** 0.585

---

tested on: RARg:RXRa (NR concentration 270 nM, RXRa partner concentration 90 nM); assay: PBM binding z-score (relative to random genomic background probes); higher = stronger binding; sequences stand for … in GC…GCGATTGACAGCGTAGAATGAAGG
# if value of PBM binding z-score reaches 1, tag yes; if it stays below, tag no

For orientation, consider the following solved cases.
entry-sequence	measured-on	class
AGAAGGAGGTTATTAAGATCAGGGAATTGCGGTC	RARg:RXRa (NR concentration 270 nM, RXRa partner concentration 90 nM)	no
ACAGACAGGTGAGTGAGGGTAACTCAGCTGGACG	RARg:RXRa (NR concentration 270 nM, RXRa partner concentration 90 nM)	no

**Query** API: above_or_equal(metric=PBM binding z-score, cutoff=1) for item ACTATTATTTGAGACGAGGGCAACCGATAGGTTG
**Result** no

**Query** API: above_or_equal(metric=PBM binding z-score, cutoff=1) for item TCTTGTAGATCAAAGGTGAAGAAAGCCGAAGCCT
**Result** no

**Query** API: above_or_equal(metric=PBM binding z-score, cutoff=1) for item GCTCGGAGGACAAGGTCAAAGCTTTGTCCGTAGA
**Result** yes

**Query** API: above_or_equal(metric=PBM binding z-score, cutoff=1) for item GGAACGAGGGCATACGAGTTGATAGCATGGCGAT
**Result** yes

**Query** API: above_or_equal(metric=PBM binding z-score, cutoff=1) for item GCGACTGGGGCAAAGCAGGTTGCCATAAGGTTGG
**Result** no

**Query** API: above_or_equal(metric=PBM binding z-score, cutoff=1) for item AGTCAAAGTTCACCTAGGTAACGTAAGATATGCT
**Result** yes

**Query** API: above_or_equal(metric=PBM binding z-score, cutoff=1) for item TCGAGTAGGTTAGTCGGGGCTTTCAGCCAACATA
**Result** no

**Query** API: above_or_equal(metric=PBM binding z-score, cutoff=1) for item GTATATAGGTAATACAAGGTGAAAGTCCGATTGT
**Result** no

**Query** API: above_or_equal(metric=PBM binding z-score, cutoff=1) for item TCTTGTAGATCAATAGAGGTTAAGGAAGTGCGCT
**Result** no

**Query** API: above_or_equal(metric=PBM binding z-score, cutoff=1) for item GCGACTGGGGCAAAGCAGTTTACCATAAGGTTGG
**Result** no

**Query** API: above_or_equal(metric=PBM binding z-score, cutoff=1) for item CCTCGGAGGACAACTGGAGGTCAGAGCTGCCAGA
**Result** yes

**Query** API: above_or_equal(metric=PBM binding z-score, cutoff=1) for item ATCGAAGGGTCGTGAGGTGAGTATACAGAAAGGC
**Result** yes

**Query** API: above_or_equal(metric=PBM binding z-score, cutoff=1) for item ACAGACAGGTGAGTGAAGGTAACCCAGCTGGACG
**Result** no

**Query** API: above_or_equal(metric=PBM binding z-score, cutoff=1) for item ACTATTAGTTGACTTAGGGCACCCGATACGACGC
**Result** no

**Query** API: above_or_equal(metric=PBM binding z-score, cutoff=1) for item AGAATAAGGTTAAGATCAGGGAAACAGAATACAT
**Result** yes

**Query** API: above_or_equal(metric=PBM binding z-score, cutoff=1) for item AATACAGGGTCACCAGGCCAGAGTAGGTACGAAT
**Result** yes
